Exercise: state measured intrinsic microsomal clearance (Clint), human for each of the compounds provided.
assay: Intrinsic microsomal clearance, human liver microsomes; assay type: in vitro ADME; settings: human liver microsomes
Where a SMILES comes first, the peptide text is derived from it. [ ]: non-standard residue; d: D form. aIle = CC[C@@H](C)[C@H](N)C(=O)O; dPhLac = O=C(O)[C@H](O)Cc1ccccc1; Sar = CNCC(=O)O

Look at this compound and give its reported intrinsic microsomal clearance (Clint), human. CC[C@@H](C)[C@@H]1NC(=O)[C@@H](Cc2ccccc2)NC(=O)CN(C)C(=O)[C@H]([C@H](C)CC)NC(=O)[C@@H](Cc2ccccc2)NC(=O)CN(C)C1=O [Compound 16] (cyclo([Sar][dF][aIle][Sar][dF][aIle])) 18.90 mL/(min g) tissue

Next entry: CC[C@@H](C)[C@@H]1NC(=O)[C@@H](Cc2ccc(OC)cc2)NC(=O)CN(C)C(=O)[C@H]([C@H](C)CC)NC(=O)[C@@H](Cc2ccc(OC)cc2)NC(=O)CN(C)C1=O [Compound 18] (cyclo([Sar][dY](Me)[aIle][Sar][dY](Me)[aIle])) 8.18 mL/(min g) tissue

Next entry: CC[C@@H](C)[C@@H]1NC(=O)[C@@H](CC(C)C)NC(=O)CN(C)C(=O)[C@H]([C@H](C)CC)NC(=O)[C@@H](CC(C)C)NC(=O)CN(C)C1=O [Compound 19] (cyclo([dL][aIle][Sar][dL][aIle][Sar])) 6.07 mL/(min g) tissue

Next entry: CN1CC(=O)O[C@H](Cc2ccccc2)C(=O)NCC(=O)N(C)CC(=O)O[C@H](Cc2ccccc2)C(=O)NCC1=O [Compound 12] (cyclo(G[Sar][dPhLac]G[Sar][dPhLac])) 34.00 mL/(min g) tissue

====

assay: Plasma stability, mouse plasma; type: in vitro ADME
Where a SMILES comes first, the peptide text is derived from it. [ ]: non-standard residue; d: D form. aIle = CC[C@@H](C)[C@H](N)C(=O)O; dPhLac = O=C(O)[C@H](O)Cc1ccccc1; Sar = CNCC(=O)O
Exercise: state measured remaining at 2 h for each of the molecules provided.
Give just the numeric value; % need not be written.

Look at this molecule and give its reported remaining at 2 h. CC[C@H](C)[C@@H]1NC(=O)[C@@H](Cc2ccccc2)OC(=O)CNC(=O)[C@H]([C@@H](C)CC)NC(=O)[C@@H](Cc2ccccc2)OC(=O)CNC1=O [Compound 13] (cyclo(G[dPhLac]IG[dPhLac]I)) 0

Next entry: CC[C@@H](C)[C@@H]1NC(=O)[C@@H](CC(C)C)NC(=O)CN(C)C(=O)[C@H]([C@H](C)CC)NC(=O)[C@@H](CC(C)C)NC(=O)CN(C)C1=O [Compound 19] (cyclo([dL][aIle][Sar][dL][aIle][Sar])) 88

Next entry: CC[C@@H](C)[C@@H]1NC(=O)[C@@H](Cc2ccccc2)OC(=O)CN(C)C(=O)[C@H]([C@H](C)CC)NC(=O)[C@@H](Cc2ccccc2)OC(=O)CN(C)C1=O [Compound 9] (cyclo([Sar][dPhLac][aIle][Sar][dPhLac][aIle])) 18

Next entry: CN1CC(=O)O[C@H](Cc2ccccc2)C(=O)NCC(=O)N(C)CC(=O)O[C@H](Cc2ccccc2)C(=O)NCC1=O [Compound 12] (cyclo(G[Sar][dPhLac]G[Sar][dPhLac])) 0

====

Exercise: state measured % human serum albumin binding (%HSA) for each of the compounds provided.
target: human serum albumin (Homo sapiens); assay: Human serum albumin binding; type: in vitro ADME
Sequence (P02768 25-609): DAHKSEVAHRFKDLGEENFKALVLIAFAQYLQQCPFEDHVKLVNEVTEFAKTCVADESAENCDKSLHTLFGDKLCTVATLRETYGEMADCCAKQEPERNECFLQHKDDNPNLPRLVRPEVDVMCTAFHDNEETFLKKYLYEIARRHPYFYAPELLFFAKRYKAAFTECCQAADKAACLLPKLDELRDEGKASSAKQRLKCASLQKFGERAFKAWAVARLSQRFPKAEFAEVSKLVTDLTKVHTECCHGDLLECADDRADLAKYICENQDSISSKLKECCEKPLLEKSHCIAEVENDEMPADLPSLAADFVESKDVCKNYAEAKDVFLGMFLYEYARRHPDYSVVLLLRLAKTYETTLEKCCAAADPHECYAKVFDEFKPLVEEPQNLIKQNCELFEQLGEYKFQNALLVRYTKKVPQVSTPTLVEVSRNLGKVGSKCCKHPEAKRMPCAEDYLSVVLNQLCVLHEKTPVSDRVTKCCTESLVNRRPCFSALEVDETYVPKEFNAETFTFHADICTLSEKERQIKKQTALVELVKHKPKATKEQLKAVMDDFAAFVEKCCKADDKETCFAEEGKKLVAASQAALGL
Where a SMILES comes first, the peptide text is derived from it. [ ]: non-standard residue; d: D form. aIle = CC[C@@H](C)[C@H](N)C(=O)O; dPhLac = O=C(O)[C@H](O)Cc1ccccc1; Sar = CNCC(=O)O
Give just the numeric value; % need not be written.

Look at this compound and give its reported % human serum albumin binding (%HSA). CN1CC(=O)O[C@H](Cc2ccccc2)C(=O)NCC(=O)N(C)CC(=O)O[C@H](Cc2ccccc2)C(=O)NCC1=O [Compound 12] (cyclo(G[Sar][dPhLac]G[Sar][dPhLac])) 54.7

Next entry: CC[C@@H](C)[C@@H]1NC(=O)[C@@H](Cc2ccc(OC)cc2)NC(=O)CN(C)C(=O)[C@H]([C@H](C)CC)NC(=O)[C@@H](Cc2ccc(OC)cc2)NC(=O)CN(C)C1=O [Compound 18] (cyclo([Sar][dY](Me)[aIle][Sar][dY](Me)[aIle])) 77.2

Next entry: CC[C@@H](C)[C@@H]1NC(=O)[C@@H](Cc2ccccc2)OC(=O)CN(C)C(=O)[C@H]([C@H](C)CC)NC(=O)[C@@H](Cc2ccccc2)OC(=O)CN(C)C1=O [Compound 9] (cyclo([Sar][dPhLac][aIle][Sar][dPhLac][aIle])) 88

Next entry: CC[C@H](C)[C@@H]1NC(=O)[C@@H](Cc2ccccc2)OC(=O)CNC(=O)[C@H]([C@@H](C)CC)NC(=O)[C@@H](Cc2ccccc2)OC(=O)CNC1=O [Compound 13] (cyclo(G[dPhLac]IG[dPhLac]I)) 91.02

====

test system: P. falciparum strain 3D7; conditions: strain 3D7, 3 h
Where a SMILES comes first, the peptide text is derived from it. [ ]: non-standard residue; d: D form. dPhe(4-Cl) = N[C@H](Cc1ccc(Cl)cc1)C(=O)O; aIle = CC[C@@H](C)[C@H](N)C(=O)O; dPhLac = O=C(O)[C@H](O)Cc1ccccc1; Sar = CNCC(=O)O
Exercise: state measured pIC50 for each of the compounds provided.
To interpret pIC50, take it as minus log10 of a concentration measured in moles per litre.

Look at this compound and give its reported pIC50. CC[C@@H](C)[C@@H]1NC(=O)[C@@H](Cc2ccc(OC)cc2)NC(=O)CN(C)C(=O)[C@H]([C@H](C)CC)NC(=O)[C@@H](Cc2ccc(OC)cc2)NC(=O)CN(C)C1=O [Compound 18] (cyclo([Sar][dY](Me)[aIle][Sar][dY](Me)[aIle])) 5.39

Next entry: CC(C)[C@@H]1NC(=O)[C@@H](Cc2ccccc2)OC(=O)CN(C)C(=O)[C@H](C(C)C)NC(=O)[C@@H](Cc2ccccc2)OC(=O)CN(C)C1=O [Compound 11] (cyclo([Sar][dPhLac]V[Sar][dPhLac]V)) 5.12

Next entry: CC(C)[C@@H]1NC(=O)[C@@H](Cc2ccccc2)NC(=O)CN(C)C(=O)[C@H](C(C)C)NC(=O)[C@@H](Cc2ccccc2)NC(=O)CN(C)C1=O [Compound 15] (cyclo([Sar][dF]V[Sar][dF]V)) 5.11

Next entry: CC[C@H](C)[C@@H]1NC(=O)[C@@H](Cc2ccccc2)OC(=O)CNC(=O)[C@H]([C@@H](C)CC)NC(=O)[C@@H](Cc2ccccc2)OC(=O)CNC1=O [Compound 13] (cyclo(G[dPhLac]IG[dPhLac]I)) 4.86

Next entry: CN1CC(=O)O[C@H](Cc2ccccc2)C(=O)NCC(=O)N(C)CC(=O)O[C@H](Cc2ccccc2)C(=O)NCC1=O [Compound 12] (cyclo(G[Sar][dPhLac]G[Sar][dPhLac])) 4.70

Next entry: CC[C@@H](C)[C@@H]1NC(=O)[C@@H](Cc2ccccc2)OC(=O)CN(C)C(=O)[C@H]([C@H](C)CC)NC(=O)[C@@H](Cc2ccccc2)OC(=O)CN(C)C1=O [Compound 9] (cyclo([Sar][dPhLac][aIle][Sar][dPhLac][aIle])) 5.64

Next entry: CC[C@@H](C)[C@@H]1NC(=O)[C@@H](Cc2ccc(Cl)cc2)NC(=O)CN(C)C(=O)[C@H]([C@H](C)CC)NC(=O)[C@@H](Cc2ccc(Cl)cc2)NC(=O)CN(C)C1=O [Compound 17] (cyclo([Sar][dPhe(4-Cl)][aIle][Sar][dPhe(4-Cl)][aIle])) 5.74

Next entry: CC[C@@H](C)[C@@H]1NC(=O)[C@@H](Cc2ccccc2)NC(=O)CN(C)C(=O)[C@H]([C@H](C)CC)NC(=O)[C@@H](Cc2ccccc2)NC(=O)CN(C)C1=O [Compound 16] (cyclo([Sar][dF][aIle][Sar][dF][aIle])) 5.66

====

test: Intrinsic microsomal clearance, mouse liver microsomes; type: in vitro ADME; conditions: mouse liver microsomes
Where a SMILES comes first, the peptide text is derived from it. [ ]: non-standard residue; d: D form. aIle = CC[C@@H](C)[C@H](N)C(=O)O; dPhLac = O=C(O)[C@H](O)Cc1ccccc1; Sar = CNCC(=O)O
property: intrinsic microsomal clearance (Clint), mouse

Look at this compound and give its reported intrinsic microsomal clearance (Clint), mouse. CC[C@@H](C)[C@@H]1NC(=O)[C@@H](Cc2ccc(OC)cc2)NC(=O)CN(C)C(=O)[C@H]([C@H](C)CC)NC(=O)[C@@H](Cc2ccc(OC)cc2)NC(=O)CN(C)C1=O [Compound 18] (cyclo([Sar][dY](Me)[aIle][Sar][dY](Me)[aIle])) 13.25 mL/(min g) tissue

Next entry: CC[C@H](C)[C@@H]1NC(=O)[C@@H](Cc2ccccc2)OC(=O)CNC(=O)[C@H]([C@@H](C)CC)NC(=O)[C@@H](Cc2ccccc2)OC(=O)CNC1=O [Compound 13] (cyclo(G[dPhLac]IG[dPhLac]I)) 65.90 mL/(min g) tissue

Next entry: CC[C@@H](C)[C@@H]1NC(=O)[C@@H](Cc2ccccc2)NC(=O)CN(C)C(=O)[C@H]([C@H](C)CC)NC(=O)[C@@H](Cc2ccccc2)NC(=O)CN(C)C1=O [Compound 16] (cyclo([Sar][dF][aIle][Sar][dF][aIle])) 47.71 mL/(min g) tissue

Next entry: CC(C)[C@@H]1NC(=O)[C@@H](Cc2ccccc2)NC(=O)CN(C)C(=O)[C@H](C(C)C)NC(=O)[C@@H](Cc2ccccc2)NC(=O)CN(C)C1=O [Compound 15] (cyclo([Sar][dF]V[Sar][dF]V)) 7.52 mL/(min g) tissue
